system.tested: human mGluR5a receptor (Homo sapiens, UniProt P41594)
Construct: cDNA subcloned into pcDNA3.1(-)
Sequence (P41594 21-1180 isoform P41594-2 limits assumed): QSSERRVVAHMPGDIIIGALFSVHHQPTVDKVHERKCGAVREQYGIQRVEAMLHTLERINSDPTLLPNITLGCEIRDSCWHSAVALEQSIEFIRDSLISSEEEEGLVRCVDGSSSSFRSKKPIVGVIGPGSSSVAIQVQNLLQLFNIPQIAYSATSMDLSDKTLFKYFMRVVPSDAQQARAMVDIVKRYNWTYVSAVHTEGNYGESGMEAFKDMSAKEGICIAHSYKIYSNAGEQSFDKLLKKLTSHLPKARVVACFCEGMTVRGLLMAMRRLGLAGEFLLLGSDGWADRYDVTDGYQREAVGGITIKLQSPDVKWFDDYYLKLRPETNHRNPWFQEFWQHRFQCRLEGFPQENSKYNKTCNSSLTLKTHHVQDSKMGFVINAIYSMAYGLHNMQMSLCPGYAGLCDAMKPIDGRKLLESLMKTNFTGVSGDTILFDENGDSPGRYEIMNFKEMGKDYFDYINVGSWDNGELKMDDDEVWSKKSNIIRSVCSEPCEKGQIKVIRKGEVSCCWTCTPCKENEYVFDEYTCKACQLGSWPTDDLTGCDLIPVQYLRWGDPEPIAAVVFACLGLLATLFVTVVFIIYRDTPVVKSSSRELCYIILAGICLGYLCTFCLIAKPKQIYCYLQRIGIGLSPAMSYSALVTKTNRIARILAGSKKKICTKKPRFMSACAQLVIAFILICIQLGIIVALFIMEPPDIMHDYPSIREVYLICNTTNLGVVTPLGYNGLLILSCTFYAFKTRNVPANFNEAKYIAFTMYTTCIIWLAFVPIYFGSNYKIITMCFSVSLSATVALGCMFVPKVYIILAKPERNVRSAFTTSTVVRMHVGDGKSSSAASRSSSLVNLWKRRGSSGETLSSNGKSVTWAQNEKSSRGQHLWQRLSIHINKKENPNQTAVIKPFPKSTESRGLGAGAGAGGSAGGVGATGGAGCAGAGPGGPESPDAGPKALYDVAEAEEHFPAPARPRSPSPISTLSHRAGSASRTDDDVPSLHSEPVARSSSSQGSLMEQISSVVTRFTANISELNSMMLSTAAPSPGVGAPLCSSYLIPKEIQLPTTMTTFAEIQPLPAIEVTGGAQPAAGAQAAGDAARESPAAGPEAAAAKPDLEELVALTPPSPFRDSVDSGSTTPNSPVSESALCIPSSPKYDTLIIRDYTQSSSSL
protocol.details: Cell-based functional Ca2+ mobilization assay (FDSS), potentiation of glutamate EC20 response
condition.context: HEK cells transfected with human mGluR5 (H10H or H12H); in presence of EC20 glutamate; read-out: EC50
pEC50 values for the molecules below.
# log scale: pEC50 equals minus log10 of the concentration in mol/L

Here are 2 molecules together with their reported answers.
O=C1c2cc(COc3cccc(F)c3)nn2CCN1c1ccc(F)cc1	6.83
CN(C)c1cccc(N2CCn3nc(COc4ccc(F)cc4)cc3C2=O)n1	7.38

Lab note: next molecule to report on.
Q) Tell me measured pEC50 for "COc1ncncc1N1CCn2nc(COc3ccccc3)cc2C1=O" please.
A) 6.14

====

system.tested: human mGluR5a receptor (Homo sapiens)
Construct: cDNA subcloned into pcDNA3.1(-)
protocol.details: Cell-based functional Ca2+ mobilization assay (FDSS), potentiation of glutamate EC20 response
condition.context: HEK cells transfected with human mGluR5 (H10H or H12H); in presence of EC20 glutamate; read-out: pEC50 (converted)
Protocol: Human embryonic kidney (HEK) cells transfected with rat mGluR5 were plated in clear bottom assay plates for assay in a Functional Drug Screening System (FDSS). […] After establishment of a fluorescence baseline for twelve seconds, the compounds of the present invention were added to the cells, and the response in cells was measured. […] Five minutes later, an mGluR5 agonist (e.g., glutamate, 3,5-dihydroxyphenylglycine, or quisqualate) was added to the cells, and the response of the cells was measured. […]
parameter: EC50 (nM)
Write it as a number; the unit nM goes unstated.

O=C1c2cc(COc3ccccc3)nn2CCN1c1ccc(F)c2ccccc12 [Example 368]	12.9

Q) Tell me measured EC50 for Cc1ccc(N2CCn3nc(COc4ccccc4)cc3C2=O)s1 [Example 319] please.
A) 28.8

Q) Tell me measured EC50 for O=C1c2cc(COc3ccccc3)nn2CCN1CC(F)(F)F [Example 24] please.
A) 1660

Q) Tell me measured EC50 for COc1cccc(N2CCn3nc(COc4ccc(F)cc4)cc3C2=O)c1 [Example 220] please.
A) 355

Q) Tell me measured EC50 for Cc1cc(N2C(=O)c3cc(COc4ccccc4)nn3C[C@H]2C)ccc1F [Example 144] please.
A) 32.4

====

pEC50 values for the compounds below.
system.tested: human mGluR5a receptor (Homo sapiens)
Construct: cDNA subcloned into pcDNA3.1(-)
protocol.details: Cell-based functional Ca2+ mobilization assay (FDSS), potentiation of glutamate EC20 response
condition.context: HEK cells transfected with human mGluR5 (H10H or H12H); in presence of EC20 glutamate

Here are 3 compounds together with their reported answers.
Cc1cc(OCc2cc3n(n2)CCN(c2ccc(F)cc2)C3=O)ncc1F [Example 180]	5.77
N#Cc1cccc(OCc2cc3n(n2)CCN(c2ccc(F)cc2)C3=O)c1 [Example 169]	6.51
COc1ccc(C)c(N2CCn3nc(COc4ccccc4)cc3C2=O)n1 [Example 109]	7.13

Q) Tell me measured pEC50 for O=C1c2cc(COc3ccccc3)nn2C(F)CN1c1ccc(F)cc1 (single isomer, unassigned) [Example 272] please.
A) 7.04

Q) Tell me measured pEC50 for CC1Cn2nc(COc3ccccc3)cc2C(=O)N1c1ccc(F)cc1 (stereo not drawn) [Example 142] please.
A) 7.19

Q) Tell me measured pEC50 for Cc1[nH]ncc1N1CCn2nc(COc3ccccc3)cc2C1=O [Example 322] please.
A) <5.00

====

system.tested: human mGluR5a receptor (Homo sapiens)
Construct: cDNA subcloned into pcDNA3.1(-)
protocol.details: Cell-based functional Ca2+ mobilization assay (FDSS), potentiation of glutamate EC20 response
condition.context: HEK cells transfected with human mGluR5 (H10H or H12H); in presence of EC20 glutamate; read-out: EC50
parameter: EC50

Here are 4 compounds together with their reported answers.
COc1ccc(N2CCn3nc(COc4ccccc4)cc3C2=O)c(C)n1 [Example 114]	100 nM
Cc1cccc(OCc2cc3n(n2)CC(C)N(c2ccc(F)cc2)C3=O)c1 (centres unmarked) [Example 243]	89 nM
COc1ncccc1N1C(=O)c2cc(COc3ccccc3)nn2C[C@H]1C [Example 148]	174 nM
COc1nc(N2CCn3nc(COc4ccccc4)cc3C2=O)ncc1Cl [Example 295]	28 nM

Q) Tell me measured EC50 for CN(C)c1ccnc(OCc2cc3n(n2)CCN(c2ccc(F)cc2)C3=O)c1 [Example 312] please.
A) > 30200 nM

====

pEC50 values for the molecules below.
system.tested: human mGluR5a receptor (Homo sapiens)
Construct: cDNA subcloned into pcDNA3.1(-)
protocol.details: Cell-based functional Ca2+ mobilization assay (FDSS), potentiation of glutamate EC20 response
condition.context: HEK cells transfected with human mGluR5 (H10H or H12H); in presence of EC20 glutamate; read-out: EC50
# log scale: pEC50 equals minus log10 of the concentration in mol/L

Q) Tell me measured pEC50 for "Cc1cc(F)ccc1N1CCn2nc(COc3ccccc3)cc2C1=O" please.
A) 7.40

Q) Tell me measured pEC50 for "O=C1c2cc(COc3ccccn3)nn2CCN1c1ccc(F)cc1" please.
A) 6.32

Q) Tell me measured pEC50 for "Cc1ccc(N2CCn3nc(COc4ccccn4)cc3C2=O)cc1" please.
A) 6.33

Q) Tell me measured pEC50 for Cc1nc2cc(N3CC(C)n4nc(COc5ccccc5)cc4C3=O)ccc2s1 (single isomer, unassigned) please.
A) 7.12

Q) Tell me measured pEC50 for "O=C1c2cc(COc3ccccc3)nn2CCN1c1cnc2cccnn12" please.
A) 5.96

Q) Tell me measured pEC50 for "COc1cncc(N2CCn3nc(COc4ccccn4)cc3C2=O)n1" please.
A) 6.18

Q) Tell me measured pEC50 for "CN1CCn2nc(COc3ccccc3)cc2C1=O" please.
A) 5.87

Q) Tell me measured pEC50 for "COc1ccccc1N1CCn2nc(COc3ccccc3)cc2C1=O" please.
A) 7.03

Q) Tell me measured pEC50 for CC1CN(c2ccc(F)cc2)C(=O)c2cc(COc3ccc(F)cc3)nn21 (single isomer, unassigned) [Example 238] please.
A) 6.87

Q) Tell me measured pEC50 for "Cc1ccnc(N2CCn3nc(COc4ccccc4)cc3C2=O)n1" please.
A) 5.81

Q) Tell me measured pEC50 for "N#Cc1cccc(OCc2cc3n(n2)CCN(c2ccc(F)cc2)C3=O)c1" please.
A) 6.51

====

system.tested: human mGluR5a receptor (Homo sapiens, UniProt P41594)
Construct: cDNA subcloned into pcDNA3.1(-)
protocol.details: Cell-based functional Ca2+ mobilization assay (FDSS), potentiation of glutamate EC20 response
condition.context: HEK cells transfected with human mGluR5 (H10H or H12H); in presence of EC20 glutamate
pEC50 values for the compounds below.

Here are 4 compounds together with their reported answers.
O=C1c2cc(COc3ccccc3)nn2CCN1c1ncccn1 [Example 77]	<5.00
COc1nccc(N2CCn3nc(COc4ccccc4)cc3C2=O)n1 [Example 110]	6.70
COc1ncc(C)cc1N1CCn2nc(COc3ccccc3)cc2C1=O [Example 298]	6.58
CC1Cn2nc(COc3ccccc3)cc2C(=O)N1c1ccc(F)cc1 (racemic) [Example 18]	6.79

Lab note: next compound to report on.
Q) Tell me measured pEC50 for CNc1ccnc(N2CCn3nc(COc4ccccc4)cc3C2=O)n1 [Example 277] please.
A) 6.03

====

melting point values for the compounds below.
Write it as a number; the unit °C goes unstated.

Here are 8 compounds together with their reported answers.
COc1ncccc1N1C(=O)c2cc(COc3ccccc3)nn2C[C@H]1C [Example 148]	145.5
O=C1c2cc(COc3ccccc3)nn2CCN1CC(F)(F)F [Example 24]	132.1
CC(C)CCc1cccc(N2CCn3nc(COc4ccccc4)cc3C2=O)n1 [Example 65]	76.7
COc1cc(N2CCn3nc(COc4ccccn4)cc3C2=O)ccc1F [Example 204]	143.9
CN(C)c1cncc(N2CCn3nc(COc4ccccc4)cc3C2=O)n1 [Example 280]	215.1
Cc1ccccc1OCc1cc2n(n1)CCN(c1ccc(F)cc1)C2=O [Example 191]	132.8
Cc1ccc(N2CCn3nc(COc4ccccc4)cc3C2=O)s1 [Example 319]	194.5
Cn1cnc(N2CCn3nc(COc4ccccc4)cc3C2=O)c1 [Example 321]	203.7

Q) Tell me measured melting point for COc1nccnc1N1C(=O)c2cc(COc3ccccc3)nn2C[C@H]1C [Example 149] please.
A) 104.9

Q) Tell me measured melting point for N#Cc1cccc(OCc2cc3n(n2)CCN(c2ccc(F)cn2)C3=O)c1 [Example 233] please.
A) 181.3

====

system.tested: human mGluR5a receptor (Homo sapiens, UniProt P41594)
Construct: cDNA subcloned into pcDNA3.1(-)
protocol.details: Cell-based functional Ca2+ mobilization assay (FDSS), potentiation of glutamate EC20 response
condition.context: HEK cells transfected with human mGluR5 (H10H or H12H); in presence of EC20 glutamate
The label depends only on pEC50: Y if it is at least 7, N if it is smaller.

Completed entries (count: 3):
Cc1cccc(N2C(=O)c3cc(COc4ccccc4)nn3CC2C)c1 (stereo not shown)	Y
Cc1cc(F)ccc1N1CCn2nc(COc3ccccc3)cc2C1=O	Y
O=C1c2cc(COc3ccncc3)nn2CCN1c1ccc(F)cn1	N

Field: next compound
Q) Textbook exercise: given the entry CC1CN(c2ccc(F)cc2)C(=O)c2cc(COc3ccccn3)nn21 (single isomer, unassigned) , state whether its pEC50 is greater than or equal to 7.
A) N

Data provenance is patent US8592422B2.
